Numbers sourced from patent US20260069689A1.

- target-or-system: SARS-COV-2 RBD extracellular domain expressed with a C-terminal myc-myc-hexahistidine tag (SARS-COV-2 RBD-mmH) (SARS-CoV-2)
- test: SPR Biacore, mAb captured on anti-hFc, RBD-mmH analyte, 37 C
binders and their reported t½
Please append the unit to your numeric answer.

Query: Could you share which t½ value was measured for mAb14289 (antibody, V domains shown) VH: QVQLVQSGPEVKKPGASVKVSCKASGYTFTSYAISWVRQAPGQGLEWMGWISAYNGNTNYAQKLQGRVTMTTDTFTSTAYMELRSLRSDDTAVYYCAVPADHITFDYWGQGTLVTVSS VL: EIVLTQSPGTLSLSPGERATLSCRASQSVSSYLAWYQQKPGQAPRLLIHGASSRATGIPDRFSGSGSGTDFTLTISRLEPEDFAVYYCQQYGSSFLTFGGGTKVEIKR ?
Response: 6.5 min

Query: Could you share which t½ value was measured for mAb13459 (antibody, V domains shown) VH: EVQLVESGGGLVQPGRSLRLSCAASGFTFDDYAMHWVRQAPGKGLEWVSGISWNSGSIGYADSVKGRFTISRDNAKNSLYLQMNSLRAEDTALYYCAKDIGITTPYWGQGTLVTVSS VL: AIQMTQSPSSLSASVGDRVTITCRASQDIRNDLGWYQQKPGKAPKLLIYSASSLQTGVPSRFSGSGSGTDFTLTISSLHPEDFATYYCLQDYNYVWTFGQGTKVEIKR ?
Response: 5.7 min

Query: Could you share which t½ value was measured for mAb14235 (antibody, V domains shown) VH: QITLKESGPTLVKPTQTLTLTCTFSGFSLNTGGVGVGWIRQPPGNALEWLALIYWDDDKRYNPSLKTRLTISKDTSKNQVVLTMTNMDPVDTATYFCAHLTIAVIVDFWGQGTLVTVSS VL: QSALTQPASVSGSPGQSITISCTATSSDVGTYNYVSWFQHHPGKAPKLMIYEVTNRPSGVSNRFSGSKSGNTASLTISGLQAEDEADYYCSSYTTTSIVFGGGTKLTVLG ?
Response: 10.6 min

Query: Could you share which t½ value was measured for mAb14247 (antibody, V domains shown) VH: QITLKESGPTLVKPTQTLTLTCTFSGFSLSTSAVGVGWIRQPPGKALEWLALIYWDDDKRYSPSLKSRLTITKDTSKNQLVLTMTNVDPVDTATYYCAHHTIQLIFDYWGQGTLVTVSS VL: QSALTQPASVSGSPGQSITISCTATSSDVGNYNYVSWYQQHPGKAPKLMIYEVSNRPSGVSNRFSGSKSGNTASLTISGLQAEDEADYYCSSYTSSSTPLVFGGGTKLTVLG ?
Response: 7.1 min

Query: Could you share which t½ value was measured for mAb14280 (antibody, V domains shown) VH: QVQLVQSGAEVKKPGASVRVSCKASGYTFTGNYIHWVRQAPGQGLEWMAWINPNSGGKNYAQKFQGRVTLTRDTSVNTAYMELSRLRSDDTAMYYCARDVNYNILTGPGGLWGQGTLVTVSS VL: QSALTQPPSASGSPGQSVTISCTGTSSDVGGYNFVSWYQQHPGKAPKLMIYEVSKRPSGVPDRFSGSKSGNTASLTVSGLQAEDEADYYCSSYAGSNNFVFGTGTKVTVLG ?
Response: 0.5 min

Query: Could you share which t½ value was measured for mAb14315 (antibody, V domains shown) VH: QVQLVQSGAEVKKPGSSVKVSCKASGDTFSTYAINWVRQAPGQGLEWMGRFIHIFGTANYAQKFQGRVTITADESTSTAYMELRSLRSEDTAVYYCARDGVDYGDYRPDYWGQGTLVTVSS VL: EIVLTQSPGTLSLSPGERATLSCRASQSVSSNYLAWYQQKPGQAPRLLIYGASSRATGIPERFSGSGSGTDFTLTISRLEPEDFAVYYCQQYGSSLYTFGQGTKLEIKR ?
Response: 11.7 min

Query: Could you share which t½ value was measured for mAb14258 (antibody, V domains shown) VH: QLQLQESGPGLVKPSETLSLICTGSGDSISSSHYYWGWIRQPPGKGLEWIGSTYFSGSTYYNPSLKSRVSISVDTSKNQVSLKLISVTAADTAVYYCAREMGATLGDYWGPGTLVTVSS VL: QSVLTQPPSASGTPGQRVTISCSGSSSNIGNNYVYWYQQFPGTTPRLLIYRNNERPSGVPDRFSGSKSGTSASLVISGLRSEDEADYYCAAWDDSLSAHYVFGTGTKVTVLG ?
Response: 6.8 min

Query: Could you share which t½ value was measured for mAb15163 (antibody, V domains shown) VH: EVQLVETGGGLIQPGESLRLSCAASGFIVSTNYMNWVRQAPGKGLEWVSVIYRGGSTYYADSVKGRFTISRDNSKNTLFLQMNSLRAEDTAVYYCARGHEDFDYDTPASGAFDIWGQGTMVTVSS VL: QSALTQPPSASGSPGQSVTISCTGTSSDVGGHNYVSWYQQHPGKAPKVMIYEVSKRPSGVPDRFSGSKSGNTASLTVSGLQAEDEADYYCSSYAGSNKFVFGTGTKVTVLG ?
Response: 29.9 min

Query: Could you share which t½ value was measured for mAb15165 (antibody, V domains shown) VH: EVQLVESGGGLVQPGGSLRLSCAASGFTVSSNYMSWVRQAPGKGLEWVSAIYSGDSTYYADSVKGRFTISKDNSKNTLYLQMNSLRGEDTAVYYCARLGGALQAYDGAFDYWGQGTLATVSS VL: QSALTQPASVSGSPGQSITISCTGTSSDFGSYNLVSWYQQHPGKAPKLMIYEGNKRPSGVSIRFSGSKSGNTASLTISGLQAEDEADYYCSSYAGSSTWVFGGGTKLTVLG ?
Response: 7.9 min

Query: Could you share which t½ value was measured for mAb14256 (antibody, V domains shown) VH: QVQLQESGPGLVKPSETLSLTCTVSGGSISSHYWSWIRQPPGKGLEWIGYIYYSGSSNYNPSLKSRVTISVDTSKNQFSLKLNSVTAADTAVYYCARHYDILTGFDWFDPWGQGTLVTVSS VL: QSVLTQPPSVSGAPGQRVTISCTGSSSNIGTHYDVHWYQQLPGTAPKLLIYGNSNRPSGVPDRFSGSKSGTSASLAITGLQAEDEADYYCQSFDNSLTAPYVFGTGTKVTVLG ?
Response: 1 min
